- tested target: endogenous NAMPT (Homo sapiens, UniProt P43490)
- Construct: stimulate the endogenous NAMPT in a native cellular environment; endogenous in cells; host or cells: SH-SY5Y neuroblastoma cells
- Sequence (P43490 whole entry): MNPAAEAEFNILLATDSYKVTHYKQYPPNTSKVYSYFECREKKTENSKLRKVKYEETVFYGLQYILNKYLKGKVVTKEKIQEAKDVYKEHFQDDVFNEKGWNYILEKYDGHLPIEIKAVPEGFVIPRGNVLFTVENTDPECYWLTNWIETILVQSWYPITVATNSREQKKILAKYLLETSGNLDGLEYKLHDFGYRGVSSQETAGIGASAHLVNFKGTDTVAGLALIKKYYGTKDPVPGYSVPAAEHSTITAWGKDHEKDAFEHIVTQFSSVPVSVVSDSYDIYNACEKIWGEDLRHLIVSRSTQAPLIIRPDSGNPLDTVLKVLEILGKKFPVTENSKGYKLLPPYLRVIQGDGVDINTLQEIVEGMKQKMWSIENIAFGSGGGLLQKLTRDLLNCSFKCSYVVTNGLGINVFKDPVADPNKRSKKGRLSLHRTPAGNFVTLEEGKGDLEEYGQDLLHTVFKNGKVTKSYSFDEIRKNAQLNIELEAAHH
- experimental details: Cellular NAD+ modulation assay in neuroblastoma SH-SY5Y cells
- Type: cell-based
- test settings: Table B; SH-SY5Y cells, cellular NAD levels, doxorubicin, 40 hours
property: AC0.3 (µM)

[[record]]
compound = "NC(=O)c1ccc(CNC(=O)NCCCCC2CCN(C(=O)c3ccccc3)CC2)cc1 [Compound 19]"
property = "AC0.3"
scale_unit = "µM"
value = 1.6

[[record]]
compound = "COc1ccc(CNC(=O)NC2CC3(C2)CC(C(=O)N2CCOc4ccccc42)C3)cc1 (stereo not shown) [Compound 85]"
property = "AC0.3"
scale_unit = "µM"
value = 0.9


[I] O=C(NCCCCC1CCN(C(=O)c2ccccc2)CC1)NCc1cnco1 [Compound 23]
[II] COc1ccc(CNC(=O)NC2CC3(C2)CC(C(=O)N2Cc4ccccc4C2)C3)cc1 (stereo not shown) [Compound 73]
Would you kindly point out which of I and II has the smaller AC0.3 figure? State the label of the item chosen. I
(I: 0.3 µM, II: 0.8 µM)
